Experiment: Inhibition of Mycobacterium tuberculosis Uracil-DNA glycosylase using 5' 32P end-labelled uracil DNA containing oligomer (5'-ctcaagtgUaggcatgcttttgcatgcctgcacttga-3') as substrate preincubated with enzyme for 15 mins followed by incubation on ice for 5 mins and incubation at room temperature for 5 mins and later incubated with substrate for 15 mins by radioactivity based assay
Mark Y for IC50 under 2000 µM, N if at or over.

The following compounds have reported results that may help.
COC(=O)CCCOc1ccc(C=C2C(=O)NC(=O)NC2=O)cc1 ... N
Cc1cc2nc3[nH]c(=O)[nH]c(=O)c3nc2cc1C ... Y
O=C(O)c1[nH]c(=O)[nH]c(=O)c1F ... N

Hi there! Is IC50 for O=C1NC(=O)C(=Cc2ccc([N+](=O)[O-])cc2)C(=O)N1 below 2000 µM, do you know?
Y

Hi there! Is IC50 for O=C1NC(=O)C(=Cc2ccc(OCCOc3ccccc3C(=O)O)cc2)C(=O)N1 below 2000 µM, do you know?
Y

Hi there! Is IC50 for Oc1nc(O)c2nc(O)[nH]c2n1 below 2000 µM, do you know?
Y

Hi there! Is IC50 for Oc1ncc(O)c(O)n1 below 2000 µM, do you know?
Y

Hi there! Is IC50 for COC(=O)c1cccc(OCCOc2ccc(C=C3C(=O)NC(=O)NC3=O)cc2)c1 below 2000 µM, do you know?
N

Hi there! Is IC50 for O=C1CC(=O)NC(=O)N1 below 2000 µM, do you know?
Y

Hi there! Is IC50 for COC(=O)c1ccc(OCCOc2ccc(C=C3C(=O)NC(=O)NC3=O)cc2)cc1 below 2000 µM, do you know?
Y

Hey, just so you know, these numbers are from ChEMBL document CHEMBL5620410.
